Could you please report measured pIC50 for the items listed next?
- target desc: human DLL4 ECD (human)
- Sequence (chain, as listed by the source): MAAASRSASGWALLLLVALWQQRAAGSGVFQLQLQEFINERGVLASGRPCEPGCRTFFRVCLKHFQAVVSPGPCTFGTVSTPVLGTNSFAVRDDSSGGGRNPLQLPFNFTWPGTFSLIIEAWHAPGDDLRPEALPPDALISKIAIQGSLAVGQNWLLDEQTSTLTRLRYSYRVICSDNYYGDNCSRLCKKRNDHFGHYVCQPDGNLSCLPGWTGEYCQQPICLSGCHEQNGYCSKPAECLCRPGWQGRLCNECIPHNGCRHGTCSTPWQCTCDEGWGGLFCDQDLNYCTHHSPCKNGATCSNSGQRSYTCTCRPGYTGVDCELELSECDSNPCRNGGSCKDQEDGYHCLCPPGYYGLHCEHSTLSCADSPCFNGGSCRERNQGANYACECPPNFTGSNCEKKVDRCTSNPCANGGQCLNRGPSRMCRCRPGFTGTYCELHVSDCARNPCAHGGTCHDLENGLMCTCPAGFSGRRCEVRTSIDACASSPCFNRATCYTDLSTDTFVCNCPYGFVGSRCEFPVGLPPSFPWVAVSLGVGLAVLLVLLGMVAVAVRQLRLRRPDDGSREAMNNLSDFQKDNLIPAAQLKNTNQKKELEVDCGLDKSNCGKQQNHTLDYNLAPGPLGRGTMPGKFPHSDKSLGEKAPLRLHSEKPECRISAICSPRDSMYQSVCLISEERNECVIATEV
- experiment summary: competition ELISA
Scale for pIC50: -log10 of concentration given in mol/L; no unit attached.

Lab book: pIC50 of h38H12.15 (antibody, V domains shown) VH: EVQLVESGGGLVQPGGSLRLSCAASGFTFSNYGMYWIRQAPGKGLEWVAFISHGGGITYYRDSVKGRFTISRDNSKSTLYLQMNSLRAEDTAVYHCAALNWELGIDYWGQGTMVTVSS VL: DIQMTQSPSSLSASVGDRVTITCRASEDIYSNLAWYQQKPGKAPKLLIYAANRLQDGVPSRFSGSGSGTDYTLTISSLQPEDFATYYCLQGSKFPLTFGQGTKLEIKR noted as 8.24

Lab book: pIC50 of h38H12.14 (antibody, V domains shown) VH: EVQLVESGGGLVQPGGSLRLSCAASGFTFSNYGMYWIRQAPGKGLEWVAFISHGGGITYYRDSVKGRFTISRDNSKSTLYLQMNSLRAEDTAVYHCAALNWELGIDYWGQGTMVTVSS VL: DIQMTQSPSSLSASVGDRVTITCRASEDIYSNLAWYQKKPGKSPKLLIYAANRLQDGVPSRFSGSGSGTDYTLTISSLQPEDFATYFCLQGSKFPLTFGQGTKLEIKR noted as 8.23

Lab book: pIC50 of h38H12.16 (antibody, V domains shown) VH: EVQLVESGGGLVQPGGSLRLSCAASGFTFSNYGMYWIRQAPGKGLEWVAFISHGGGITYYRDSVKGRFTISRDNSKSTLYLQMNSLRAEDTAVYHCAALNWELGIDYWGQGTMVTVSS VL: EIVMTQSPATLSVSPGERATLSCRASEDIYSNLAWYQKKPGQSPRLLIYAANRLQDGVPARFSGSGSGTEYTLTISSLQSEDFAVYFCLQGSKFPLTFGQGTKLEIKR noted as 8.42

Lab book: pIC50 of h38H12.5 (antibody, V domains shown) VH: EVQLVESGGGVVQPGRSLRLSCAASGFTFSNYGMYWIRQAPGKGLEWVAFISHGGGITYYRDSVKGRFTISRDNSKSTLYLQMNSLRAEDTAVYHCAALNWELGIDYWGQGTMVTVSS VL: DIQMTQSPSSLSASVGDRVTITCRASEDIYSNLAWYQQKPGKAPKLLIYAANRLQDGVPSRFSGSGSGTDFTLTISSLQPEDFATYYCLQGSKFPLTFGQGTKLEIKR noted as 7.83

Where do the numbers come from? From patent US20190315855.
